// data source = the supplement of paper PMC10567573

Each entry below carries its recorded protein stability index.
B1: KRT18 (parent)
chain: PQVRDWSHYFKIIEDLRAQIFANT

# Variants of: B1
# ASSAY_OVERVIEW: protein stability index of a GFP-peptide fusion (GPS, HEK-293T) (PSI 1-6); higher = more stable;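 also: lentivirally expressed fusions sorted by FACS into six bins by GFP to DsRed ratio, PSI derived from sequencing read proportions per bin multiplied by bin number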
# MEASUREMENT_CONTEXT: c terminus: a fixed tail appended

# SEQUENCE_TEXT, protein stability index
records = [
    ("PDVRDWSHYFKIIEDLRAQIFANT [Q2D]", 2.04),
    ("PQVRPWSHYFKIIEDLRAQIFANT [D5P]", 1.87),
    ("PQVRDWSHYFKIIWDLRAQIFANT [E14W]", 2.79),
    ("PQVRDWSHYFKIIEDLRAQIFATT [N23T]", 1.56),
    ("PQVRDWSHYFKIIEDLRAQIFQNT [A22Q]", 2.72),
    ("LQVRDWSHYFKIIEDLRAQIFANT [P1L]", 1.73),
    ("PQVRDWSHYFKIIEVLRAQIFANT [D15V]", 2.32),
    ("PQVRDWSHYFKIIEDLRAEIFANT [Q19E]", 2.62),
    ("PQVRDWSHRFKIIEDLRAQIFANT [Y9R]", 2.25),
    ("PQVRDWSHYFKIIEDLRAQIFLNT [A22L]", 1.45),
    ("PQVRDWSHYLKIIEDLRAQIFANT [F10L]", 2.17),
    ("PQVRDWSHYFKIIEDLEAQIFANT [R17E]", 2.61),
    ("PQVRDWSHYFNIIEDLRAQIFANT [K11N]", 1.49),
    ("PQVRDWSHYFKIIADLRAQIFANT [E14A]", 2),
    ("PQVRDWSHYFKLIEDLRAQIFANT [I12L]", 2.27),
    ("PQVRDWSHYFPIIEDLRAQIFANT [K11P]", 1.55),
    ("PQVRDWSHYFKIIEDLGAQIFANT [R17G]", 2.3),
    ("PQARDWSHYFKIIEDLRAQIFANT [V3A]", 1.71),
    ("PQVRDWSHYFKIIEDLRAQIHANT [F21H]", 2.4),
    ("PQVRDWSCYFKIIEDLRAQIFANT [H8C]", 1.78),
    ("PQVRDWSHYFKSIEDLRAQIFANT [I12S]", 2.3),
    ("PQVRDWSHYFKIIEDLRAQIFAVT [N23V]", 2.08),
    ("PQVRDWSHYFKIIEDLRAPIFANT [Q19P]", 1.97),
    ("PQVRDWSHYFKIIEDLRAQIFAYT [N23Y]", 1.56),
    ("PQVRDWSHYFKWIEDLRAQIFANT [I12W]", 3.05),
    ("PQVRDWSHYFKIINDLRAQIFANT [E14N]", 2.03),
    ("PQVRDWSHYFKIIEDLRASIFANT [Q19S]", 2.67),
    ("PQVRDNSHYFKIIEDLRAQIFANT [W6N]", 2.18),
    ("PQVRRWSHYFKIIEDLRAQIFANT [D5R]", 3.09),
    ("PQVRDWSHYFKIIEDLRAYIFANT [Q19Y]", 1.65),
    ("PQVGDWSHYFKIIEDLRAQIFANT [R4G]", 2.37),
    ("PQVRDWSHYFKIIEDLRAQIFANS [T24S]", 2.31),
    ("PQVMDWSHYFKIIEDLRAQIFANT [R4M]", 2.69),
    ("PQVRDWSHYPKIIEDLRAQIFANT [F10P]", 3.18),
    ("PQVRDWSHYFKIIEDLRAQIFANM [T24M]", 2.81),
    ("PQVHDWSHYFKIIEDLRAQIFANT [R4H]", 2.25),
    ("PQVRDQSHYFKIIEDLRAQIFANT [W6Q]", 2.41),
    ("PQVRDWSHYFKIIEDPRAQIFANT [L16P]", 2.38),
    ("PQVRDWSHYFKIIEDLRAQIAANT [F21A]", 2.83),
    ("PIVRDWSHYFKIIEDLRAQIFANT [Q2I]", 2.92),
    ("PQVRDWSHYFKIIESLRAQIFANT [D15S]", 2.09),
    ("PQVRDWSHYFKISEDLRAQIFANT [I13S]", 2.15),
    ("PQVRDWSHQFKIIEDLRAQIFANT [Y9Q]", 2.42),
    ("PQVRDWCHYFKIIEDLRAQIFANT [S7C]", 1.94),
    ("PQVRDWSHYFKIICDLRAQIFANT [E14C]", 2.33),
    ("PQVRDWSHYFKIIEDLRAQIFDNT [A22D]", 2.49),
]
